Measured IC50 on PI3Kα (Homo sapiens, UniProt P42336) follows.
Sequence (P42336 whole entry): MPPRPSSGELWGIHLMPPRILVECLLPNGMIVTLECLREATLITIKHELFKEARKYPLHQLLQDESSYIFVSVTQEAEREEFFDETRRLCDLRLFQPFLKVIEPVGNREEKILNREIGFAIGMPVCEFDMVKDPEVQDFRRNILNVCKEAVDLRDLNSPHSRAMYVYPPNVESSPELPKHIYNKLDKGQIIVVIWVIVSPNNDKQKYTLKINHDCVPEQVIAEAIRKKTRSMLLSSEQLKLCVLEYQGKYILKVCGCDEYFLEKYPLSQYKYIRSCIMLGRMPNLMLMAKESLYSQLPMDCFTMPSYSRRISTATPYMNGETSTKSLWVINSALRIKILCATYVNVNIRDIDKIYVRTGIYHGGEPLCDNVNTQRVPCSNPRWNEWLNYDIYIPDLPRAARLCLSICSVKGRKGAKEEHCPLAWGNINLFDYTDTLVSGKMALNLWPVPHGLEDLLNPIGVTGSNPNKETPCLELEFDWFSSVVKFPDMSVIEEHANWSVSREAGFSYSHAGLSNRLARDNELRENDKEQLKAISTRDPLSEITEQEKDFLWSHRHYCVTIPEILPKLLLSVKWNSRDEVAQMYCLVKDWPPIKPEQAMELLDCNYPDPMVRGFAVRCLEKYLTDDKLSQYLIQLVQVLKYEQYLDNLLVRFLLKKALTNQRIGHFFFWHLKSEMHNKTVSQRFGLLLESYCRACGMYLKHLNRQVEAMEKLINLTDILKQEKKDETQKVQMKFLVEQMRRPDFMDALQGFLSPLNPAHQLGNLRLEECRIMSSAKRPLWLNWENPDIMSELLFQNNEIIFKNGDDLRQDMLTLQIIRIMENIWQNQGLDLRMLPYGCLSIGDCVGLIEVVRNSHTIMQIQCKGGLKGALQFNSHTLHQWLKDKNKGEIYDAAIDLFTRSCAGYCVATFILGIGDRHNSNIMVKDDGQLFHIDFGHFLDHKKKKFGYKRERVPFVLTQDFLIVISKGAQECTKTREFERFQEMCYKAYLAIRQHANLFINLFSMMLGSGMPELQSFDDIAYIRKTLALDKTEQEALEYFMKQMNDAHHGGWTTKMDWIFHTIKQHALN
Sequence (P27986 whole entry partner): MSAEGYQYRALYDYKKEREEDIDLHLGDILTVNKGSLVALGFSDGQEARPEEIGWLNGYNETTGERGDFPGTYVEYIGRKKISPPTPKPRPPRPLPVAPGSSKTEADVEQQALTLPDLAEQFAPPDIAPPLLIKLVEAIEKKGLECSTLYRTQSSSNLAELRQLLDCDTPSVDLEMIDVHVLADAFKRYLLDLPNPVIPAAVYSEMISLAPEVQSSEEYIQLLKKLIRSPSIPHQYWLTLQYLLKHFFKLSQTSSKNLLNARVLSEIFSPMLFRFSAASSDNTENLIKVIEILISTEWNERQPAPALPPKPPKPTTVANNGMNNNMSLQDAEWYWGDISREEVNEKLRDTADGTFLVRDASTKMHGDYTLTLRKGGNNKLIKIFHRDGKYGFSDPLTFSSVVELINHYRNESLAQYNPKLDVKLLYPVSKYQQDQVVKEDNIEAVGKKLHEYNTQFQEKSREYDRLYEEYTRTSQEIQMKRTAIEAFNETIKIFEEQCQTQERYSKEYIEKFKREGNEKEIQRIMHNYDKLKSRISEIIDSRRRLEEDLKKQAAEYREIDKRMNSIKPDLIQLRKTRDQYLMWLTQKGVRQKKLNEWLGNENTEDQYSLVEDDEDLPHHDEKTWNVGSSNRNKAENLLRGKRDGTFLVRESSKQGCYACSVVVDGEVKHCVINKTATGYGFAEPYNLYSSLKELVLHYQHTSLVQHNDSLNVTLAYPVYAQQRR

Incoming: Hello, please tell me recorded IC50 for this one: Cc1nc2ccc(-c3ccc4c(c3)CN(C(=O)N3CCN(c5ccc(C(F)(F)F)cn5)CC3)CCO4)cc2[nH]1
Outgoing: 500 to 1000 nM

Incoming: Hello, please tell me recorded IC50 for this one: Cc1nc2ccc(-c3ccc4c(c3)CN(C(=O)N3CCN(c5cccc(Cl)c5)CC3)CCO4)cc2[nH]1
Outgoing: 1000 to 3000 nM

Incoming: Hello, please tell me recorded IC50 for this one: Cc1nc2ccc(-c3ccc4c(c3)CN(C(=O)N3CCCCC3c3cc(F)cc(Cl)c3)CCO4)cc2[nH]1 (stereo not drawn)
Outgoing: 75 to 200 nM

Incoming: Hello, please tell me recorded IC50 for this one: CC1=C[C@H]2CN(C(=O)N3CCOc4ccc(-c5ccc6[nH]c(C)nc6c5)cc4C3)C[C@H]2C1 (racemic)
Outgoing: 200 to 500 nM

Incoming: Hello, please tell me recorded IC50 for this one: CC1CCN(C(=O)N2CCOc3ccc(-c4cncs4)cc3C2)CC1
Outgoing: 1000 to 3000 nM

Incoming: Hello, please tell me recorded IC50 for this one: CC(F)(F)C1CCN(C(=O)N2CCOc3ccc(-c4cnc5nc(N)[nH]c5c4)cc3C2)CC1
Outgoing: ≤ 75 nM

Incoming: Hello, please tell me recorded IC50 for this one: Cc1nc2ccc(-c3ccc4c(c3)CN(C(=O)N3CCCCC3c3cccc(F)c3)CCO4)cc2[nH]1 (stereo not drawn)
Outgoing: ≤ 75 nM

Incoming: Hello, please tell me recorded IC50 for this one: CCOC(=O)C1CCCCN1C(=O)N1CCOc2ccc(-c3ccc4nc(C)[nH]c4c3)cc2C1 (stereo not drawn)
Outgoing: 1000 to 3000 nM

Incoming: Hello, please tell me recorded IC50 for this one: Cc1nc2ccc(-c3ccc4c(c3)CN(C(=O)N3CCCCC3c3ccc(N(C)C)cc3)CCO4)cc2[nH]1 (stereo not drawn)
Outgoing: 1000 to 3000 nM

Incoming: Hello, please tell me recorded IC50 for this one: O=C1CCN(C(=O)N2CCOc3ccc(-c4ccc5[nH]c(NCC(F)(F)F)nc5c4)cc3C2)C(c2cccc(F)c2)C1 (stereo not drawn)
Outgoing: 200 to 500 nM

Incoming: Hello, please tell me recorded IC50 for this one: CC(=O)Nc1ncc(-c2ccc3c(c2)CN(C(=O)N2CCC(C)CC2)CCO3)s1
Outgoing: 1000 to 3000 nM

Incoming: Hello, please tell me recorded IC50 for this one: Cc1nc2ccc(-c3ccc4c(c3)CN(C(=O)N3CCCCC3c3cc(C(F)(F)F)cc(C(F)(F)F)c3)CCO4)cc2[nH]1 (stereo not drawn)
Outgoing: 1000 to 3000 nM

Incoming: Hello, please tell me recorded IC50 for this one: Cc1nc2ccc(-c3ccc4c(c3)CN(C(=O)N3CCCCC3)CCO4)cc2[nH]1
Outgoing: 200 to 500 nM

Incoming: Hello, please tell me recorded IC50 for this one: Cc1nc2ccc(-c3ccc4c(c3)CN(C(=O)N3[C@@H]5CC[C@H]3C[C@@H](CO)C5)CCO4)cc2[nH]1
Outgoing: 200 to 500 nM

Incoming: Hello, please tell me recorded IC50 for this one: Cc1nc2ccc(-c3ccc4c(c3)CN(C(=O)N3CCN(c5ccc([N+](=O)[O-])cc5)CC3)CCO4)cc2[nH]1
Outgoing: 200 to 500 nM
